Biological target: human D2 receptors (Homo sapiens (Human), UniProt P14416)
Sequence (P14416 whole entry): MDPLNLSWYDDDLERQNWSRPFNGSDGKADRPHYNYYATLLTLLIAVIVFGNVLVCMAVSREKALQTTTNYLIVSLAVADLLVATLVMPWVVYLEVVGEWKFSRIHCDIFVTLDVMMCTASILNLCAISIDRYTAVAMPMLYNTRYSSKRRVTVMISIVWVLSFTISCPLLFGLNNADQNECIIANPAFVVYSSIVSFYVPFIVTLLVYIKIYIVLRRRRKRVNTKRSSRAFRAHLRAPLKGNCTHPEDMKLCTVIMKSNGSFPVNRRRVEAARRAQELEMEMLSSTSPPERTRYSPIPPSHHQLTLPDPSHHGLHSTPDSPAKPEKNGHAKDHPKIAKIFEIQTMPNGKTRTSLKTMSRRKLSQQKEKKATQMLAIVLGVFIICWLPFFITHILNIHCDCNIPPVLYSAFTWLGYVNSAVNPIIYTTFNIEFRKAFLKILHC
Assay: D2 Mitogenesis Functional Assay (3H-thymidine uptake, CHOp-D2 cells)
Assay type: cell-based
Details: at 10 μM; inhibition of quinpirole stimulation of mitogenesis
Protocol: These assays are based on ^3H-thymidine uptake by cells that are proliferating. CHO cells expressing human D2 receptors (CHOp-D2 cells) were maintained in alpha-MEM with 10% FCS, 0.05% pen-strep, and 200 μg/mL of G418. […] The cells were incubated at 37° C. in alpha-MEM with 10% FCS. […] The cells were trypsinized by addition of 10× trypsin solution (1% trypsin in calcium-magnesium-free phosphate-buffered saline) and the plates were filtered and counted as usual. […]
Each entry below carries its recorded D2 Antagonist Imax.
Give the quantity in % at 10 μM, number only.

INSERT INTO assay_data (compound, targetortestsystem, assayendpoint, obsvalue) VALUES
  ('CC(C)(C)c1nc(N2CCN(CCCCNC(=O)N3CCN(c4ccccc4)CC3)CC2)cc(C(F)(F)F)n1', 'human D2 receptors (Homo sapiens (Human), UniProt P14416)', 'D2 Antagonist Imax', 100),
  ('O=C(NCCCCN1CCN(c2cccc(Cl)c2Cl)CC1)N1CCC(c2ccccc2)CC1', 'human D2 receptors (Homo sapiens (Human), UniProt P14416)', 'D2 Antagonist Imax', 98.5),
  ('CC(C)(C)c1nc(N2CCN(CCCCNC(=O)N3CCN(c4ncccn4)CC3)CC2)cc(C(F)(F)F)n1', 'human D2 receptors (Homo sapiens (Human), UniProt P14416)', 'D2 Antagonist Imax', 100),
  ('CC(C)(C)c1nc(N2CCN(CCCCNC(=O)c3cn4ccncc4n3)CC2)cc(C(F)(F)F)n1', 'human D2 receptors (Homo sapiens (Human), UniProt P14416)', 'D2 Antagonist Imax', 96.6),
  ('CC(C)(C)c1nc(N2CCN(CCCCNC(=O)N3CCN(c4ccccn4)CC3)CC2)cc(C(F)(F)F)n1', 'human D2 receptors (Homo sapiens (Human), UniProt P14416)', 'D2 Antagonist Imax', 99.9);

# query: D2 Antagonist Imax | item O=C(NCCCCN1CCN(c2cccc(Cl)c2Cl)CC1)N1CCN(c2ccccc2)CC1 | system: human D2 receptors (Homo sapiens (Human), UniProt P14416)
91.0

---

Target: human D3 dopamine receptor (Homo sapiens (Human), UniProt P35462)
Sequence (P35462 whole entry): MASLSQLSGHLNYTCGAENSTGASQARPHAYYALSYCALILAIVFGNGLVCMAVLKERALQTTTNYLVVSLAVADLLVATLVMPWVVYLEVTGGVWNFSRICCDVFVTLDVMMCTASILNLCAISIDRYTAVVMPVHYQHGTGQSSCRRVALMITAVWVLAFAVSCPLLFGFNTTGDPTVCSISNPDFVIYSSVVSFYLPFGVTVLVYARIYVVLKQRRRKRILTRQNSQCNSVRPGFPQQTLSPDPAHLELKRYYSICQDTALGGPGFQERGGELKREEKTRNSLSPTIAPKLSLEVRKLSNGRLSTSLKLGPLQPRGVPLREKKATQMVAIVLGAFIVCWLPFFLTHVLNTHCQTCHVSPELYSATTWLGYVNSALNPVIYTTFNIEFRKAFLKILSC
Property: log10(Ki); scope: individual compounds
Heads up: the numbers are on a log10 scale; they represent Ki in µM.

See these solved cases before continuing.
INSERT INTO measurements (compound, assayendpoint, obsvalue) VALUES
  ('Cc1nc(N2CCN(CCCCNC(=O)N3CCN(c4ccccc4)CC3)CC2)cc(C(C)(C)C)n1', 'log10(Ki)', -1.53),
  ('CC(C)(C)c1nc(N2CCN(CCCCNC(=O)N3CCN(c4ccncc4)CC3)CC2)cc(C(F)(F)F)n1', 'log10(Ki)', -2.59);

Kindly state the measured log10(Ki) obtained for CC(C)(C)c1nc(N2CCN(CCCCNC(=O)N3CCN(C4CCCCC4)CC3)CC2)cc(C(F)(F)F)n1 with human D3 dopamine receptor (Homo sapiens (Human), UniProt P35462).
-1.53

Provide the documented log10(Ki) with human D3 dopamine receptor (Homo sapiens (Human), UniProt P35462) as the system for O=C(NCCCCN1CCN(c2ccnc3ccccc23)CC1)c1nc2ccccn2c1Cl
-0.49

So what log10(Ki) did O=C(NCCCCN1CCN(c2ccnc3ccccc23)CC1)c1nc2ccccn2c1Br get with human D3 dopamine receptor (Homo sapiens (Human), UniProt P35462)?
-0.55

Reported log10(Ki) for human D3 dopamine receptor (Homo sapiens (Human), UniProt P35462), given CC(C)(C)c1nc(N2CCN(CCCCNC(=O)N3CCc4[nH]c5ccc(Cl)cc5c4C3)CC2)cc(C(F)(F)F)n1 ?
-0.70

Hi! What's the reported log10(Ki) for O=C(NCCCCN1CCN(c2cc(C(F)(F)F)nc3ccccc23)CC1)N1CCC(c2ccccc2)CC1 on human D3 dopamine receptor (Homo sapiens (Human), UniProt P35462)?
0.73

Form field - read-out: log10(Ki); system: human D3 dopamine receptor (Homo sapiens (Human), UniProt P35462); submitted item: O=C(NCCCCN1CCN(c2ccnc3ccccc23)CC1)C1CCC(c2ccccc2)CC1 (centres unmarked)
-1.45

Data origin: patent US9598387B2
